# tested-on: EGFR (ErbB1) (Homo sapiens, UniProt P00533)
# Construct: purchased Invitrogen
# Sequence (P00533 25-1210): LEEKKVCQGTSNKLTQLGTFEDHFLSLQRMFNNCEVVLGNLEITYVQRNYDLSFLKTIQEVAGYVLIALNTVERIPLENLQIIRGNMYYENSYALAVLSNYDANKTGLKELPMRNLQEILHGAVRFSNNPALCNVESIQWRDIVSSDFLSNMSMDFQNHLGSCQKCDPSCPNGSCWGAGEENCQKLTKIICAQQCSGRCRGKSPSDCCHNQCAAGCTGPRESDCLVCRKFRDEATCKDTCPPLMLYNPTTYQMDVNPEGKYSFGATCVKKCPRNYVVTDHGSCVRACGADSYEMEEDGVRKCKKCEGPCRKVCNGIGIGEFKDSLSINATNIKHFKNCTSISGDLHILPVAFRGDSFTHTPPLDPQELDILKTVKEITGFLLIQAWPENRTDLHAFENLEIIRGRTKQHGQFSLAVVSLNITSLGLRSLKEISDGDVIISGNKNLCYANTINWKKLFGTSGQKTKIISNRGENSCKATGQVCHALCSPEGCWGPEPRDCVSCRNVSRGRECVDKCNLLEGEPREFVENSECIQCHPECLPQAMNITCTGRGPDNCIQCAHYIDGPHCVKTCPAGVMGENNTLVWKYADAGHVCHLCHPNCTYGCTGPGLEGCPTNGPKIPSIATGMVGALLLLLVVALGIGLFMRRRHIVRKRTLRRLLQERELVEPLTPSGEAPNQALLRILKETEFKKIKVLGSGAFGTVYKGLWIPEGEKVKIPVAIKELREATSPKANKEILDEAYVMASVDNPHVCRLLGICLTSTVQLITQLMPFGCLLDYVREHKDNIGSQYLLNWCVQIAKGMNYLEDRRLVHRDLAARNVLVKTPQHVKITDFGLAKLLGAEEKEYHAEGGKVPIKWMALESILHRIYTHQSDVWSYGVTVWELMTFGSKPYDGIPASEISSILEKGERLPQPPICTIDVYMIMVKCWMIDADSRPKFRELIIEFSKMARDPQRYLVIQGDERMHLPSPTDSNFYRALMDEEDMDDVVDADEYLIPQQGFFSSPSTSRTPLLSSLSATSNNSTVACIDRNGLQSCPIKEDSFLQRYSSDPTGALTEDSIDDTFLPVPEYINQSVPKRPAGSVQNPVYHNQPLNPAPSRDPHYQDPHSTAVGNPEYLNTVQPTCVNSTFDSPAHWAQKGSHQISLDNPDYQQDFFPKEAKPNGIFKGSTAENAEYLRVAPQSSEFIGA
# assay-protocol: In vitro kinase assay (Z′-LYTE)
# Type: biochemical
# condition-parameters: read-out: % of inhibition of the kinase compared to the control
endpoint: inhibition at 0.1 µM

Q. Supply inhibition at 0.1 µM value. Item: COC(=O)c1cc2cc(NCc3cc(NC(=O)Cc4cccc(C(F)(F)F)c4)ccc3C)cnc2[nH]1 [OR0601]
A. < 50%

Q. Supply inhibition at 0.1 µM value. Item: COC(=O)c1cc2cc(NC(=O)c3cccc(CNC(=S)c4cccc(C(F)(F)F)c4)c3)cnc2[nH]1 [OR1011]
A. < 50%

Q. Supply inhibition at 0.1 µM value. Item: COC(=O)c1cc2cc(NC(=O)c3cc(NC(=S)c4cc(-n5cnc(C)c5)cc(C(F)(F)F)c4)ccc3C)cnc2[nH]1 [OR0643]
A. < 50%

Q. Supply inhibition at 0.1 µM value. Item: COC(=O)c1cc2cc(NCc3cccc(C(=O)Nc4ccc(CN5CCN(C)CC5)c(C(F)(F)F)c4)c3)cnc2[nH]1 [OR0635]
A. < 50%

Q. Supply inhibition at 0.1 µM value. Item: COC(=O)c1cc2cc(NCc3cc(NC(=O)c4ccc(CN5CCN(C)CC5)c(C(F)(F)F)c4)ccc3C)cnc2[nH]1 [OR0512]
A. ≥ 50%

Q. Supply inhibition at 0.1 µM value. Item: COC(=O)c1cc2cc(NCc3cc(NC(=O)c4cccc(Br)c4)ccc3C)cnc2[nH]1 [OR0608]
A. < 50%
